All figures here come from PubChem BioAssay (NCI).

Can you tell me growth inhibition for the items I'm about to list?
- ASSAY METHOD TEXT: NCI Yeast Anticancer Drug Screen. Data for the mlh1 rad18 strain (AID 175)
- SETUP CONDITIONS: S. cerevisiae mlh1 rad18 strain growth inhibition; at 50.0 µM; hits give high values
The panel holds about 79,000 compounds, 15% with a hit somewhere; the sample as a whole holds those more often.
Answers are plain numbers, in %.

Hey, can you go through the list below and give me growth inhibition for every item?
1. O=C(CC(C(=O)O)N1CCOCC1)c1ccccc1 (stereo not given)
2. S=C1SCN(C2CCCCC2)CN1C1CCCCC1
3. CCN(CC)CCOc1cc(C)c2cc(Cc3ccccc3)ccc2n1
4. COc1c(O)c(C=O)c(Br)c(C=O)c1O

47.9
49.1
96
99

Hey, can you go through the list below and give me growth inhibition for every item?
1. COc1ccc([N+](=O)[O-])c2c(NCCCN(C)C)c3ccccc3nc12
2. O=C(NNc1ccccc1)c1ccc(Cl)c(Cl)c1
3. O=C1/C(=C/c2ccccc2)CCCC1CN1CCCCC1 (stereo not given)
4. CCN(CC)Cc1cc(Nc2c3ccccc3nc3c2[nH]c2ccccc23)cc(CN(CC)CC)c1O
5. CCCCOCn1c(=O)[nH]c(=O)c2cc(Br)ccc21
6. O=[N+]([O-])c1ccc(N/N=C/Cc2ccccc2)c([N+](=O)[O-])c1
7. CCOC(=O)c1ccc(NC(=O)O/N=C(/Cl)C(C)C)cc1

1: 68.5; 2: 44.9; 3: 74.7; 4: -11.6; 5: 26.9; 6: 12.1; 7: 69.1

Hey, can you go through the list below and give me growth inhibition for every item?
1. Oc1ccc(SCc2ccc(NCc3ccccc3)cc2)cc1
2. Brc1ccccc1-c1ncc(-c2ccccc2)o1
3. CCCCCCCCCCCCNC(C)=O
4. O=C1C(Br)=C(c2ccccc2)O/C1=C/C(=O)c1ccc(Br)cc1
5. CC(C)CN(CC(C)C)C(=O)c1ccc(Cl)c(Cl)c1
6. Cc1cccc[n+]1C1CCc2c(ccc3ccccc23)C1=O (stereo not given)
7. Cc1cc(C(C)(C)CC(C)(C)C)ccc1O

79.8
56.9
91.8
52.6
97.5
89.7
92.9

Hey, can you go through the list below and give me growth inhibition for every item?
1. Oc1ccc(-c2nc(-c3ccc(F)cc3)c(-c3ccc4ccccc4n3)[nH]2)cc1
2. c1ccc2c(OCC3CO3)cccc2c1 (stereo not given)
3. Cc1ccccc1N=C(NO)c1ccccc1
4. Cc1cc(S(=O)(=O)Nc2nnc3cnc4ccccc4n23)c(S)cc1Cl
5. CCCCCCCCCCCC1N=C(N)NC(CCCO)=C1C(=O)OC (stereo not given)
6. CCOc1ccccc1N=Cc1c2ccccc2cc2ccccc12
7. O=C1CC(=O)c2ccccc21

[85.8, 82.1, 92.9, 15.2, 85.5, 86.5, 70]

====

- ASSAY METHOD TEXT: NCI Yeast Anticancer Drug Screen. Data for the rad50 strain (AID 155);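 further: 0% = growth of vehicle-only cultures of the same strain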
- SETUP CONDITIONS: S. cerevisiae rad50 strain growth inhibition; at 100.0 µM; hits give high values
- Procedure: Growth inhibition of yeast strains with defined genetic alterations is measured as a screen for potential anti-cancer activity. Selected strains with alterations in DNA damage repair or cell cycle control were exposed to compounds and growth inhibition was measured relative to vehicle treated controls. The strain used in this assay is rad50
Compounds without any hit were thinned out: in the full panel of roughly 79,000, 15% have a hit.
Can you tell me growth inhibition for the items I'm about to list?
Numbers only, in %.

# COMPOUND, UNIT TAG, growth inhibition
rows = [
    ("CCCCOC(=O)Nc1ccc(C)c(NC(=O)OCCCC)c1", "%", 42),
]

Hey, can you go through the list below and give me growth inhibition for every item?
1. Cc1ccc(N=Nc2ccc(O)c(=O)cc2)cc1
2. CCCCC(CC)C(=O)[O][Sn]([CH2]CCC)([CH2]CCC)[O]C(=O)C(CC)CCCC (configuration not stated)
3. COc1cc(O)c(O)c(C(C)(C)C)c1

92
97
12

Hey, can you go through the list below and give me growth inhibition for every item?
1. O=[N+]([O-])c1cc(Cl)cnc1Br
2. N#CC(=Nc1ccccc1F)Nc1ccccc1F
3. C=C1CCC(O)C/C1=C/C=C1\CCCC2(C)C1CCC2C(C)CCCC(C)C (configuration not stated)
4. OCC(CO)C(c1cccc2ccccc12)c1cccc2ccccc12
5. O=[n+]1c2ccccc2n([O-])c2cc(Br)ccc21

98
5
30
88
97

Hey, can you go through the list below and give me growth inhibition for every item?
1. CC(/C=C/c1ccccc1)=N\NC(N)=S
2. Cc1nc2ccc(N=NN(C)C)cc2[nH]1
3. Cc1c2cccc(Sc3ccccc3)c2c2c3c(cccc13)[S+](c1ccccc1)C2 (configuration not stated)

1: 97; 2: 98; 3: 82

====

- ASSAY METHOD TEXT: NCI Yeast Anticancer Drug Screen. Data for the mlh1 strain (AID 171);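 further: 0% = growth of vehicle-treated control cultures of the same strain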
- SETUP CONDITIONS: S. cerevisiae mlh1 strain growth inhibition; at 3.7 µM; hits give high values
This is part of a sample that, as a whole, favours compounds with a hit. Of some 79,000 tested, about 15% had one in any assay.
PROPERTY: growth inhibition (%)
Answers are plain numbers, in %.

Worked examples follow.
# COMPOUND, UNIT TAG, MEASUREMENT
rows = [
    ("Cc1cc(C(C)(C)C)c(OCCCN2CCOCC2)c(C(C)(C)C)c1", "%", 2),
    ("Oc1cccc2cc(Cl)cnc12", "%", -42),
]

Hey, can you go through the list below and give me growth inhibition for every item?
1. Cc1ccc(N=Nc2ccc(O)c(=O)cc2)cc1
2. O=C1C=C(N2CCN(c3ccccn3)CC2)C(=O)c2c(O)ccc(O)c21
3. CCc1c[n+]([O-])c(C)cc1[N+](=O)[O-]
4. Cc1cccc[n+]1C1CCc2c(ccc3ccccc23)C1=O (stereo unspecified)

1: 5; 2: 12; 3: -1; 4: 1

====

- ASSAY METHOD TEXT: NCI Yeast Anticancer Drug Screen. Data for the rad50EPP+ strain (AID 151);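 further: 0% = growth of vehicle-treated control cultures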
- SETUP CONDITIONS: S. cerevisiae rad50 mutant strain, at 11.0 µM, hits give high values
About 79,000 compounds went through this panel and 15% of them were active in at least one assay; those are over-represented in the sample as a whole. Calls of active or inactive are those of the source. Rule as the data show it: active = growth inhibition above about 70%; inactive = the rest.
Can you tell me growth inhibition for the items I'm about to list?

Worked examples follow.
# COMPOUND, growth inhibition
data = [
    ("COc1cc(/C=N/Nc2nnc3c4ccccc4c4ncccc4c3n2)cc(OC)c1OC", "58% (inactive)"),
    ("CC(=O)OCC(C)Cc1cc2c(cc1Br)OCO2 (stereo not drawn)", "16% (inactive)"),
    ("CCOC(=N)c1ccc(O)c(OC)c1", "-6% (inactive)"),
]

Hey, can you go through the list below and give me growth inhibition for every item?
1. Nc1nc(N)c2nc(CNc3ccc(C(=O)NC(CCC(=O)O)C(=O)O)cc3F)cnc2n1 (stereo not drawn)
2. CCc1c(Cl)c(C)cc(O)c1Cl
3. N#CNC(N)=Nc1cc2ccccc2c2ccccc12
4. COc1cc(O)c2c(c1O)C(=O)c1cc(C)ncc1C2=O
5. COC(=O)CCC(NC(=S)N/N=C(\C)c1ccccn1)C(=O)OC (stereo not drawn)

1: 13% (inactive); 2: 8% (inactive); 3: 61% (inactive); 4: 19% (inactive); 5: 2% (inactive)

Hey, can you go through the list below and give me growth inhibition for every item?
1. Cc1ccc(CC2(OCCN(C)C)CCC(C(C)(C)C)CC2)cc1 (stereo not drawn)
2. COc1ccc(C(=O)C(CN(C)C)CN(C)C)cc1
3. C[Si](C)(C)/C=C/CCNC(C#N)c1ccccc1 (stereo not drawn)
4. CNC(=O)OCc1c(COC(=O)NC)c2n(c1C)-c1ccc(OC)cc1CCC2

1: -3% (inactive); 2: 9% (inactive); 3: -17% (inactive); 4: -8% (inactive)

Hey, can you go through the list below and give me growth inhibition for every item?
1. COc1cc(/C=C2\CCC/C(=C\c3ccc(O)c(OC)c3)C2=O)ccc1O
2. CC(C)CCCC(C)C1CCC2C3CCC4=CC(=O)/C(=C\O)CC4(C)C3CCC12C (stereo not drawn)
3. O=c1[nH]c(-c2ccccc2)nc2c1sc1nc3ccccc3n12
4. Cc1cc(-c2cc(C)c(O)c(C(C)(C)C)c2)cc(C(C)(C)C)c1O
5. CC(=O)OCC1OC2OC(=O)NC2C(OC(C)=O)C1OC(C)=O (stereo not drawn)
6. CCCC/C([O-])=C1/C(=O)N(c2ccccc2)N=C1C.CCCC/C([O-])=C1/C(=O)N(c2ccccc2)N=C1C.[Cu+2]
7. O=C(CSC(=S)N1CCCCC1)Nc1nc2c(s1)CCCC2

1: 24% (inactive); 2: -6% (inactive); 3: -36% (inactive); 4: -29% (inactive); 5: -1% (inactive); 6: -1% (inactive); 7: 38% (inactive)
